# Test Target: epithelial sodium channel (ENaC) (Mus musculus, UniProt Q61180+Q9WU38+Q9WU39)
# Construct: Mouse kidney M-1 cells were cultivated in DMEM containing 5% FCS and 5 μM dexamethasone; endogenous in cells
# Sequence (Q61180 1-699): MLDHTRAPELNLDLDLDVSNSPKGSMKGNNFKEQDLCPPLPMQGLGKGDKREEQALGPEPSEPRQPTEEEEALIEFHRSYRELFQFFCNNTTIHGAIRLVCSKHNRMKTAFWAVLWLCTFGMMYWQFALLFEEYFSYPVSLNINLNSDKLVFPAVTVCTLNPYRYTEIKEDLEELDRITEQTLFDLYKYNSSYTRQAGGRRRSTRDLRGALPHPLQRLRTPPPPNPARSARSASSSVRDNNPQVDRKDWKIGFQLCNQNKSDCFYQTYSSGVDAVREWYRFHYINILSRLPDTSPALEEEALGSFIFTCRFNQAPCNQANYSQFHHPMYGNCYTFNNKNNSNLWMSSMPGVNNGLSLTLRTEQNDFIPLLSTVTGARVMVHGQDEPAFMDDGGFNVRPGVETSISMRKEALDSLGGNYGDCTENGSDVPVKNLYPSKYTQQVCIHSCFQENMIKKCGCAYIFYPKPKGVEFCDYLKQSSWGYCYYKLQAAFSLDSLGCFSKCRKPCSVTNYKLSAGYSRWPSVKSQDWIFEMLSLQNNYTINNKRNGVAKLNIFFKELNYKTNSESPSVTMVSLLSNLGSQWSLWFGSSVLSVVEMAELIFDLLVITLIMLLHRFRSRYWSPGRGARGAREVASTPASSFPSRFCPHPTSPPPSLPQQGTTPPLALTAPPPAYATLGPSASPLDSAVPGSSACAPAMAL
# Sequence (Q9WU38 1-638): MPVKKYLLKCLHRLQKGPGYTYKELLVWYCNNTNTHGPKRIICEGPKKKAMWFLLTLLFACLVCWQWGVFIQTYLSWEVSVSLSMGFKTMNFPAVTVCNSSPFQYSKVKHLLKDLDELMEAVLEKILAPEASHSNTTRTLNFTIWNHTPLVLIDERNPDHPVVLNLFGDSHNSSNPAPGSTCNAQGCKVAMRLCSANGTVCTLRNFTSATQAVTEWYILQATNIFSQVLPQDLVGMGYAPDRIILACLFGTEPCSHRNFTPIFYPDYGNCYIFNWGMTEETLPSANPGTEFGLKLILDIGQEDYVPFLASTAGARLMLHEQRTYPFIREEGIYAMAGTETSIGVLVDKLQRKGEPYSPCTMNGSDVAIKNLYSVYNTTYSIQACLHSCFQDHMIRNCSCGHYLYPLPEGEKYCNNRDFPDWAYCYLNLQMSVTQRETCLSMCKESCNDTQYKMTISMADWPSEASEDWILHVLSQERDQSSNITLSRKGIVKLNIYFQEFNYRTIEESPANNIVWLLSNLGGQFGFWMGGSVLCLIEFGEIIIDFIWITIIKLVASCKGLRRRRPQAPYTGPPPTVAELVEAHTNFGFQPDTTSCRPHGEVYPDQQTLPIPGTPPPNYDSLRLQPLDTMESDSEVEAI
# Sequence (Q9WU39 1-655): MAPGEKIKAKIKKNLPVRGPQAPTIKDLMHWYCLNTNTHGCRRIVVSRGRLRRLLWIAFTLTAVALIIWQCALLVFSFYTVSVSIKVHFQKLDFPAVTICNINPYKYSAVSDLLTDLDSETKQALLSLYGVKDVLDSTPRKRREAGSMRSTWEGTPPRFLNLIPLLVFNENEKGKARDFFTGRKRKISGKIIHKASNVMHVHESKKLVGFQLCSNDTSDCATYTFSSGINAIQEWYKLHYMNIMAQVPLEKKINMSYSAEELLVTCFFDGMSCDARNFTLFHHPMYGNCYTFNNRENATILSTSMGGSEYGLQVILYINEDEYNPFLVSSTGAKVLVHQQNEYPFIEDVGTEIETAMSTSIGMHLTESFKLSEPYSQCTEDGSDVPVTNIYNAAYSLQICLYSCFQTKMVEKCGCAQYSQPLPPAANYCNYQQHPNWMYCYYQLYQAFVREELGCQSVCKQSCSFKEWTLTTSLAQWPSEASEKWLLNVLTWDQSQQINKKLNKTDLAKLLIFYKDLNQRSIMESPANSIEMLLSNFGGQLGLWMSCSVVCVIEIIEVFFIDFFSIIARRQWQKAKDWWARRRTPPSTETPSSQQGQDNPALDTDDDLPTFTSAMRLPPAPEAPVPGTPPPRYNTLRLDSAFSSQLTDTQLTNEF
# Assay: Ussing chamber: inhibition of amiloride sensitive short circuit current (I_sc) in M-1 cells
# Condition Context: Mouse kidney M-1 cells on transwell filters, Ussing chamber at 37° C., compound added to the apical solution
Recorded IC50, one value per entry.
Respond with the bare value in nM.

Recorded IC50, per entry:
Molecule: NCCCCC(=O)N1CCC(CNC(N)=NC(=O)c2nc(Cl)c(N)nc2N)(Cc2ccccc2)CC1 [Example 2.8]
IC50, nM: 61

Molecule: CC(C)(C)OC(=O)NCC(=O)N1CCC(CCc2ccccc2)(CNC(N)=NC(=O)c2nc(Cl)c(N)nc2N)CC1 [Example 1.25]
IC50, nM: 18

Molecule: NCCCNC(=O)N1CCC(CNC(N)=NC(=O)c2nc(Cl)c(N)nc2N)(Cc2ccccc2)CC1 [Example 2.13]
IC50, nM: 25

Molecule: CC(C)(C)OC(=O)NCCCNC(=O)N1CCC(CNC(N)=NC(=O)c2nc(Cl)c(N)nc2N)(Cc2ccccc2)CC1 [Example 1.36]
IC50, nM: 18

Molecule: CS(=O)(=O)N1CCC(CCc2ccccc2)(CNC(N)=NC(=O)c2nc(Cl)c(N)nc2N)CC1 [Example 1.1]
IC50, nM: 34

Query: Return IC50 for the following molecule: NCCCNC(=O)N1CCC(CCc2ccccc2)(CNC(N)=NC(=O)c2nc(Cl)c(N)nc2N)CC1 [Example 2.6]
Response: 28

Query: Please look at this molecule and report its IC50: C[N+]1(C)CCC(NC(=O)N2CCC(CCc3ccccc3)(CNC(N)=NC(=O)c3nc(Cl)c(N)nc3N)CC2)CC1 [Example 5.5]
Response: 52
